Where these numbers come from: ChEMBL document CHEMBL1201862

Test system: SK-MEL-28
Assay: NCI tumour cell line growth inhibition, 48 h
The source made the active and inactive calls. No stated cut-off is given here; in the data, active = GI50 up to about 1.1 µM and inactive = higher.
Would you mind answering with one of these outcomes? T = active, F = inactive

See these solved cases before continuing.
c1ccc(-c2sc(-c3ccccc3)c3c2C(c2ccccc2)c2c(-c4ccccc4)sc(-c4ccccc4)c2C3c2ccccc2)cc1 (stereo not drawn)    F
CC(=O)c1c(O)ccc2c1CC(CC=O)O2 (stereo not drawn)    F
O=C(/C=C/c1ccccc1)CSc1nc2ccc(I)cc2c(=O)n1Cc1ccccc1    F
C=CCCC(=O)C(=[N+]=[N-])C(=O)CCC(=O)c1ccccc1    F

Per the records of this test, what outcome belongs to COc1ccc2c(c1)[n+]([O-])c(-c1ccccc1)c(N)[n+]2[O-] ? F

Hi, sorry to bother you, what did the test record for Cc1ccc(S(=O)(=O)NC(=O)NC(C(=O)O)C(C)O)cc1 (stereo not drawn) ? F

Which result was noted for this compound in the test: C=C1c2c(cc3c(c2O)c(=O)c2ccccc2n3C)OC1(C)C F

Look up the recorded call for COc1nc(=O)n(COC(CO)CN2C(=O)c3ccccc3C2=O)cc1Cc1cccc(OCc2ccccc2)c1 (stereo not drawn) in this test. F

# lookup: test call for COc1ccc(N[C@H]([C@@H](c2ccccc2)[S+]([O-])c2ccc(C)cc2)C(F)(F)F)cc1 (stereo partly drawn) F

Entry NC1=NCC(CN2CCOCC2)O1 (stereo not drawn) : call = ? F

Please let me know the test result on file for Cc1ccc2nc(N/N=C/c3cccc(C)n3)cc(C)c2c1 . F

# fetch the recorded call for CC(C)N(C(=O)C12C3C4C1C1C2C3C41C(O)C(C)(C)C)C(C)C (stereo not drawn) here F

###

Test system: SK-OV-3
Experiment: NCI tumour cell line growth inhibition, 48 h
Calls of active or inactive are those of the source. No stated cut-off is given here; in the data, active = GI50 up to about 1.1 µM and inactive = higher.
Outcome (select one): true (1) for active, false (0) for inactive

Look over these answered cases.
O=C(O)C(C(=O)C(=O)C(C(=O)O)c1ccc(Cl)cc1)c1ccc(Cl)cc1 (configuration not stated)    false (0)
CSc1c(C#N)c(N)n(-c2ccc(Cl)cc2)c(=O)c1C#N    false (0)
COc1cc2c(cc1OC)/C(=C\c1ccccc1N)C(=O)OC2    false (0)
COC(=O)C(=O)C1(CCC(C)=O)c2ccccc2-c2c(C)ccc(C)c21 (configuration not stated)    false (0)
COc1ccc(N[C@H]([C@@H](c2ccccc2)[S+]([O-])c2ccc(C)cc2)C(F)(F)F)cc1 (some centres not stated)    false (0)
Nc1ccc2ncc(Nc3ccc(Cl)c(Cl)c3)nc2c1    false (0)
Nc1cc(N2CCOCC2)nc(=O)n1-c1ccc(Cl)cc1    false (0)
CC12CCC(=O)N1[C@@H](c1ccccc1)[C@@H](c1ccccc1)O2 (some centres not stated)    false (0)
Cc1cc2c(c(S(=O)(=O)c3ccc(Cl)cc3[N+](=O)[O-])c1)NCCC2    false (0)
COc1nc(=O)n(COC(CO)CN2C(=O)c3ccccc3C2=O)cc1Cc1cccc(OCc2ccccc2)c1 (configuration not stated)    false (0)

Recorded test call requested for O=[N+]([O-])c1cccc2nc3ccccc3c(NCCNCCO)c12 true (1)

Tell me the recorded outcome of this test for COC(=O)C1C2C=CC(C2)N1S(=O)(=O)c1ccccc1 (configuration not stated) . false (0)

Write down the call the test reported for this molecule. Item: COC(=O)C1=CC2OC13CC1CCC3(C2=O)C1(C)C (configuration not stated) false (0)

Look up the recorded call for COC(=O)C(Cc1nc2ccc(Cl)cc2nc1O)/C(=N/NC(N)=O)C(=O)Nc1ccc(Cl)cc1 (configuration not stated) in this test. false (0)
